Origin of the recorded values: ChEMBL document CHEMBL2062470

# measured-target: Botulinum neurotoxin type A (Clostridium botulinum (strain Hall / ATCC 3502 / NCTC 13319 / Type A))
# measurement-description: Inhibition of Clostridium botulinum Hall BoNT/A protease activity using Ac-SNKTRIDEANQRATKML-NH2 as substrate at 100 uM after 5 mins by RP-HPLC analysis
reported-property: inhibition (%)

{"columns": ["molecule", "reported-property", "measurement"],
 "data": [
  ["Cc1cc(O)c2c(c1)C(=O)c1c(c(O)cc(O)c1-c1c(O)cc(O)c3c1C(=O)c1cc(C)cc(O)c1C3=O)C2=O", "inhibition", 74.3],
  ["CCC[C@H]1Cc2cc3c(-c4c(O)cc(O)c5c(O)c6c(cc45)C[C@H](CCC)OC6=O)c(O)cc(O)c3c(O)c2C(=O)O1 (single isomer, unassigned; atropisomer)", "inhibition", 80.3],
  ["CCC[C@H]1Cc2cc3c(-c4c(O)cc(O)c5c(O)c6c(cc45)C[C@H](CCC)OC6=O)c(O)cc(O)c3c(O)c2C(=O)O1", "inhibition", 96]
]}
